Just for reference, paper PMC7307906 is where these values come from.

List of pEC50 values.
# EXPERIMENTAL SYSTEM: human MC1R (Homo sapiens, UniProt Q01726)
# Construct: expressed in transfected cells
# Sequence (Q01726 whole entry): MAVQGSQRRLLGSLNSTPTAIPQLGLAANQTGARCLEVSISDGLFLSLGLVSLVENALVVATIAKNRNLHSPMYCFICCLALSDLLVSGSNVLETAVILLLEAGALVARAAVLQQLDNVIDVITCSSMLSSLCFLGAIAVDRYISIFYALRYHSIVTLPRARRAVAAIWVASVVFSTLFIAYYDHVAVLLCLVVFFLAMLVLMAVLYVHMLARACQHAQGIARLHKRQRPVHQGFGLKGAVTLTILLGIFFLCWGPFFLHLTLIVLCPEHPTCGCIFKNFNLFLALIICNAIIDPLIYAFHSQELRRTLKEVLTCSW
# ASSAY NOTES: cAMP assay (LANCE) in T-Rex-293 cells expressing MC1R
# Assay type: cell-based
# CONDITION DESCRIPTION: cAMP assay; mean (± SEM) of at least three independent experiments; read-out: EC50 hMC1R cAMP
pEC50: −log10 of the molar value.
READOUT LABEL: pEC50

molecule="C[C@@H]1NC(=O)[C@H](CC(N)=O)NC(=O)[C@H](Cc2ccccc2)NC(=O)[C@H](Cc2ccccc2)NC(=O)[C@H](CCCNC(=N)N)NC(=O)[C@H](Cc2ccccc2)N(C)C(=O)[C@@H]2N[C@H](c3ccc(cc3)C(=O)NCCCC[C@@H](C(=O)N[C@@H](Cc3ccc(O)cc3)C(N)=O)NC(=O)[C@H](Cc3ccccc3)NC1=O)[C@@H]1C(=O)N(C)C(=O)[C@@H]12 [B1-major, [ I-FRFFNAFK ]Y]" readout_label=pEC50 bound_type== measurement=5.74
molecule="CN1C(=O)[C@H]2N[C@@H](c3ccc(cc3)C(=O)NCCCC[C@@H](C(=O)N[C@@H](Cc3ccc(O)cc3)C(N)=O)NC(=O)[C@H](Cc3ccccc3)NC(=O)[C@H](Cc3ccccc3)NC(=O)[C@H](CCCNC(=N)N)NC(=O)[C@@H]1Cc1ccccc1)[C@H]1C(=O)N(c3ccccc3)C(=O)[C@H]12 [N1-major*, [II-FRFFK ]Y]" readout_label=pEC50 bound_type=< measurement=5.00

* * *

# EXPERIMENTAL SYSTEM: Recombinant human SPSB2 (Homo sapiens)
# Construct: purchased Abcam ab134592
# Sequence (Q99619 1-263): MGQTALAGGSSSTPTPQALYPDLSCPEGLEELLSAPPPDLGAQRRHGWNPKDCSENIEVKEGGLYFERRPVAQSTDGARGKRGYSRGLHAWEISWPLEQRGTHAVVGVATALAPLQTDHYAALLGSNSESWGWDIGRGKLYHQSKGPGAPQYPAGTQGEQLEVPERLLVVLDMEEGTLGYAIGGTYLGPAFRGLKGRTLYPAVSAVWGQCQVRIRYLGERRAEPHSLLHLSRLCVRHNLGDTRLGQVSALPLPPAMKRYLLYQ
# ASSAY NOTES: Surface plasmon resonance (SPR) binding to immobilized hSPSB2
# CONDITION DESCRIPTION: SPR, hSPSB2, mean ± SEM of three independent experiments
READOUT LABEL: Kd (nM)

compound="CC[C@H](C)[C@@H]1NC(=O)[C@H](CC(=O)O)NC(=O)[C@H](Cc2ccccc2)N(C)C(=O)[C@@H]2N[C@H](c3ccc(cc3)C(=O)NCCC[C@@H](C(=O)NCC(N)=O)NC(=O)[C@H](CC(N)=O)NC(=O)[C@H](CC(N)=O)NC(=O)[C@H](CC(N)=O)NC1=O)[C@@H]1C(=O)N(C)C(=O)[C@@H]12 [D8-major, [I-FDINNNOrn ]G]" readout_label=Kd bound_type== measurement=282
compound="CC[C@H](C)[C@@H]1NC(=O)[C@H](CC(=O)O)NC(=O)[C@H](Cc2ccccc2)N(C)C(=O)[C@H]2N[C@@H](c3ccc(cc3)C(=O)NCCCC[C@@H](C(=O)NCC(N)=O)NC(=O)[C@H](CC(N)=O)NC(=O)[C@H](CC(N)=O)NC(=O)[C@H](CC(N)=O)NC1=O)[C@@H](C(=O)OC)[C@H]2C(=O)OC [D4-minor, [IV-FDINNNK ]G]" readout_label=Kd bound_type=> measurement=10000
compound="CC[C@H](C)[C@@H]1NC(=O)[C@H](CC(=O)O)NC(=O)[C@H](Cc2ccccc2)N(C)C(=O)[C@@H]2N[C@H](c3ccc(cc3)C(=O)NC[C@@H](C(=O)NCC(N)=O)NC(=O)[C@H](CC(N)=O)NC(=O)[C@H](CC(N)=O)NC(=O)[C@H](CC(N)=O)NC1=O)[C@@H]1C(=O)N(C)C(=O)[C@@H]12 [D10-major, [I-FDINNNDap ]G]" readout_label=Kd bound_type== measurement=72
compound="CC[C@H](C)[C@@H]1NC(=O)[C@H](CC(=O)O)NC(=O)[C@@H](Cc2ccccc2)N(C)C(=O)[C@@H]2N[C@H](c3ccc(cc3)C(=O)NCCCC[C@@H](C(=O)NCC(N)=O)NC(=O)[C@H](CC(N)=O)NC(=O)[C@H](CC(N)=O)NC(=O)[C@H](CC(N)=O)NC1=O)[C@@H]1C(=O)N(C)C(=O)[C@@H]12 [D15-major, [I-fDINNNK ]G]" readout_label=Kd bound_type=> measurement=10000
compound="CC[C@H](C)[C@@H]1NC(=O)[C@H](CC(=O)O)NC(=O)[C@H](Cc2ccccc2)N(C)C(=O)[C@@H]2N[C@H](c3ccc(cc3)C(=O)NC[C@@H](C(=O)NCC(N)=O)NC(=O)[C@H](CC(N)=O)NC(=O)[C@H](CC(N)=O)NC(=O)[C@H](CC(N)=O)NC1=O)[C@@H]1C(=O)N(c3ccccc3)C(=O)[C@@H]12 [D17-major, [II-FDINNNDap ]G]" readout_label=Kd bound_type== measurement=1080
compound="CC[C@H](C)[C@@H]1NC(=O)[C@H](CC(=O)O)NC(=O)[C@H](Cc2ccccc2)N(C)C(=O)[C@@H]2N[C@H](c3ccc(cc3)C(=O)NCC[C@@H](C(=O)NCC(N)=O)NC(=O)[C@H](CC(N)=O)NC(=O)[C@H](CC(N)=O)NC(=O)[C@H](CC(N)=O)NC1=O)[C@@H]1C(=O)N(C)C(=O)[C@@H]12 [D9-major, [I-FDINNNDab ]G]" readout_label=Kd bound_type== measurement=66
